Molecular target: 3',5'-cyclic-AMP phosphodiesterase 4B (Homo sapiens)
Assay: Inhibition of PDE4B2 (unknown origin) using FAM-cAMP as substrate at 10 uM after 60 min by fluorescence polarization assay
Readout name: inhibition (%)

Some compounds with known inhibition results, for comparison:
Provide value of inhibition for this record tested with 3',5'-cyclic-AMP phosphodiesterase 4B (Homo sapiens): CCCCn1c(=O)c2ccccc2n2c(-c3cccc(O)c3)nnc12
44

Provide value of inhibition for this record tested with 3',5'-cyclic-AMP phosphodiesterase 4B (Homo sapiens): CCCCn1c(=O)c2ccccc2n2c(-c3ccc(N(C)C)cc3)nnc12
6

Provide value of inhibition for this record tested with 3',5'-cyclic-AMP phosphodiesterase 4B (Homo sapiens): CCCCN1C(=O)c2ccccc2NC1c1cccc([N+](=O)[O-])c1 (stereo not given)
15

A. CCCCN1C(=O)c2ccccc2NC1c1ccc(O)c(OC)c1 (stereo not given)
B. CCCCn1c(=O)c2ccccc2n2c(-c3ccc(O)c(OC)c3)nnc12
C. CCCCN1C(=O)c2ccccc2NC1c1ccc(N(C)C)cc1 (stereo not given)
D. COc1ccc(C2CNC(=O)C2)cc1OC1CCCC1 (stereo not given)
// ascending sort on recorded inhibition In plain terms: list the labels in the order you were asked to.
C, A, B, D

a. CCCCn1c(N/N=C/c2ccc(N(C)C)cc2)nc2ccccc2c1=O
b. CCCCn1c(=O)c2ccccc2n2c(-c3cccc([N+](=O)[O-])c3)nnc12
Which has the smaller recorded inhibition, a or b ? Please identify the chosen entry by its label.
a
(a: 19%, b: 44%)

The values you see were collected from ChEMBL document CHEMBL3046253.
